Quick reference for Activity among some compounds
- assay.protocol: Cell cycle arrest in KB/HeLa cells by accumulation at S phase at 100 nM
- Type: functional, cell-based
- condition.notes: Homo sapiens
Numeric answer only, unit % assumed.

CC[C@]1(O)C[C@H]2CN(CCc3c([nH]c4ccccc34)[C@@](C(=O)OC)(c3cc4c(cc3OC)N(C=O)[C@H]3[C@@](O)(C(=O)OC)[C@H](OC(C)=O)[C@]5(CC)C=CCN6CC[C@]43[C@@H]65)C2)C1 [VINCRISTINE]: 4.8
COC(=O)Nc1nc2cc(C(=O)c3cccs3)ccc2[nH]1 [NOCODAZOLE]: 26.1
COc1cc2c(c(OC)c1OC)-c1ccc(OC)c(=O)cc1[C@@H](NC(C)=O)CC2 [COLCHICINE]: 5.1
CC(=O)O[C@H]1C(=O)[C@@]2(C)[C@H]([C@H](OC(=O)c3ccccc3)[C@]3(O)C[C@H](OC(=O)[C@H](O)[C@@H](NC(=O)c4ccccc4)c4ccccc4)C(C)=C1C3(C)C)[C@]1(OC(C)=O)CO[C@@H]1C[C@@H]2O [PACLITAXEL]: 11

Task: Dear colleague, please send me the reported Activity for COc1cc(/C=C2/c3ccccc3C(=O)c3ccsc32)cc(OC)c1O when you can.
Result: 16.2
